System: human vascular smooth muscle cells
Assay: Inhibitory activity against adhesion of human vascular smooth muscle cells to vitronectin
Type: cell-based
Conditions: immobilized human vitronectin
measure: IC50 (nM)
# output: bare number, implied unit nM

For the compound O=C(NC[C@H](NS(=O)(=O)c1ccccc1)C(=O)O)c1ccc(N2CCC[C@H](N=C3NCCCN3)C2)cc1F , report IC50.
13

###

Biological target: Integrin αvβ3 (vitronectin receptor) (Homo sapiens, UniProt P05106+P06756)
Construct: a vitronectin receptor (protein content: 118 µg/ml) purified from the human placenta; from tissue; host or cells: human placenta
Sequence (P06756 31-889 limits assumed): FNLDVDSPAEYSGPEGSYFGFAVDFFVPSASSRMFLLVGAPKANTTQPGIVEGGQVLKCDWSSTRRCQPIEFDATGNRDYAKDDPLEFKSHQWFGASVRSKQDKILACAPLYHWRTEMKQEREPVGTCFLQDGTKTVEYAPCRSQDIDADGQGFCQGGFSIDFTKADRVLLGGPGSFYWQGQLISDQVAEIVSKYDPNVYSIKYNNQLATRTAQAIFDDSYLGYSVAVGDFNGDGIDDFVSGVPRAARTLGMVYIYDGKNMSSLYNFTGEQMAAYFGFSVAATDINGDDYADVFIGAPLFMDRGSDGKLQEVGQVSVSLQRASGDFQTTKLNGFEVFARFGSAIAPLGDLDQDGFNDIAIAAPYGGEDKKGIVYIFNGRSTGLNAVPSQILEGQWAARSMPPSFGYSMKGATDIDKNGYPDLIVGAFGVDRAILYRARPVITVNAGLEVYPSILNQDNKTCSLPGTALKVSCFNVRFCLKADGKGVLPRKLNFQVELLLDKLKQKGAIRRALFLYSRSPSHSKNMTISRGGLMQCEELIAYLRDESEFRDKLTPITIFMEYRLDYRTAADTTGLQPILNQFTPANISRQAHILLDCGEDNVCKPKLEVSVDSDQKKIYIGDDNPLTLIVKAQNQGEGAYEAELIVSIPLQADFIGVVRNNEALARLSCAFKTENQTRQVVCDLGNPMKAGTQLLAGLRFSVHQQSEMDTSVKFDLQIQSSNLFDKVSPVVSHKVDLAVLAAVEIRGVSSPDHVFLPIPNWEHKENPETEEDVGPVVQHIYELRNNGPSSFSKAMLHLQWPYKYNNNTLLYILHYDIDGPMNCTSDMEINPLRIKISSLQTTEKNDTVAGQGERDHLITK
Sequence (P06756 891-1048 partner limits assumed): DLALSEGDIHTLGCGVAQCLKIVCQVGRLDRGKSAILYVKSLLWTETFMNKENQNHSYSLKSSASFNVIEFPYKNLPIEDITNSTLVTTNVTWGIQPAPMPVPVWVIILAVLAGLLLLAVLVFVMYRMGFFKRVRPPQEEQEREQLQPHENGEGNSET
Sequence (P05106 27-788): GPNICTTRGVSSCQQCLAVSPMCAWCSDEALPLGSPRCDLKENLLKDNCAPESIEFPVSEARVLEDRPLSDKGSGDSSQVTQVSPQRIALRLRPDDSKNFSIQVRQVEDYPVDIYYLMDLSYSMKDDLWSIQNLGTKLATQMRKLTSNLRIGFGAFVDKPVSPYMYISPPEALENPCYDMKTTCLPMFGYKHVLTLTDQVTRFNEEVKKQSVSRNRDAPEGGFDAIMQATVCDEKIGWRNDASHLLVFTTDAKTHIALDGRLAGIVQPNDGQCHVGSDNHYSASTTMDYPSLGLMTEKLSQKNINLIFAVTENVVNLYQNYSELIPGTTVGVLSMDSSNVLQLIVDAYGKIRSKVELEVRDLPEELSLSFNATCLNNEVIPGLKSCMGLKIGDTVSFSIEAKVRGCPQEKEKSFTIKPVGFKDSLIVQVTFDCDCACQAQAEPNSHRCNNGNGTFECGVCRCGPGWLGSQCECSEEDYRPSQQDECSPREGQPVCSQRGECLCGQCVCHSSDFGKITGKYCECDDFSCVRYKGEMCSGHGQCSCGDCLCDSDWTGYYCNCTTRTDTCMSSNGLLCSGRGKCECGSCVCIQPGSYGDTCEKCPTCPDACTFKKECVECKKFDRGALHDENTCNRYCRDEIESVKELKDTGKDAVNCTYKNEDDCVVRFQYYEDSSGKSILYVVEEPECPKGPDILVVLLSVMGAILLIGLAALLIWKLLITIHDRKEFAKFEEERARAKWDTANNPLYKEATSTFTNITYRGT
Assay: αvβ3 Binding assay (vitronectin-vitronectin receptor binding assay)
Details: read-out: IC50 (integrin αvβ3 antagonistic activity); vitronectin binding to vitronectin receptor purified from the human placenta
pIC50: −log10 of the molar value.
In this section we review reported pIC50 values for a set of compounds.

{"columns": ["compound", "measure", "test result"],
 "data": [
  ["O=C(NC[C@H](NS(=O)(=O)c1ccccc1)C(=O)O)c1ccc(N2CCC[C@H](NC3=NCCCN3)C2)c(F)c1F", "pIC50", "≥ 9.00"],
  ["O=C(NC[C@H](NS(=O)(=O)c1ccccc1)C(=O)O)c1ccc(N2CCCC(NC3=NCCCN3)C2)cc1 (stereo partly drawn)", "pIC50", "≥ 9.00"]
]}

Note: attention shifts to another entry.
For the compound O=C(NC[C@H](NS(=O)(=O)c1ccccc1)C(=O)O)c1ccc(N2CCC[C@H](Nc3ccccn3)C2)cc1 , report pIC50.
≥ 9.00
